biological target: GIPR (CHO-K1-hGIPR cells) (Homo sapiens, UniProt P48546); construct: host or cells: CHO-K1; test: FACS binding assay; conditions: competition with 20 nM GIP-057, 4° C., 1 hour, read-out: pIC50 Category (converted)
Sequence (P48546 22-466): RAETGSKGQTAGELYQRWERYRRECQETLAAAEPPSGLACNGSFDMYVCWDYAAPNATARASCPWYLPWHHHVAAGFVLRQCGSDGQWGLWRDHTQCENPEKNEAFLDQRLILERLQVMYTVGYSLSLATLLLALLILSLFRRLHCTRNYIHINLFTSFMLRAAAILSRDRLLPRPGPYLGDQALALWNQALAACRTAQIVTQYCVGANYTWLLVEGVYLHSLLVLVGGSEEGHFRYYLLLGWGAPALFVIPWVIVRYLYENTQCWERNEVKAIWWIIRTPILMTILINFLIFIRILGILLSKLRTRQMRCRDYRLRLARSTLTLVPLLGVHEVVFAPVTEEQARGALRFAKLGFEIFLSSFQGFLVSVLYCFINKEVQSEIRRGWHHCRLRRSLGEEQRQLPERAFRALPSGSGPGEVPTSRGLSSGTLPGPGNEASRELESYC
*1 amine or outer side, *2 acyl side, *3 side chain or, on linkers, in order; H or OH if unused. Where a SMILES comes first, the peptide text is derived from it. Bridges are numbered along the chain shown (N, C = ends). [ ]: non-standard residue; d: D form. The star is where a group is joined. X5 = NC(=O)[C@H](CCCCNC(=O)CN1CCN(CC(=O)O)CCN(CC(=O)O)CCN(CC(=O)O)CC1)NC(=O)CCC(=O)NCCCOCCOCCOCCCN*; X19 = O=C(O)CN1CCN(CC(=O)O)CCN(CC(=O)N2CCN(Cc3cc(C[*:1])cc(C[*:2])c3)CC2)CCN(CC(=O)O)CC1; DOTA = O=C(O)CN1CCN(CC(=O)O)CCN(CC(=O)*)CCN(CC(=O)O)CC1; Trp(5-Cl) = N[C@@H](Cc1c[nH]c2ccc(Cl)cc12)C(=O)O; Pyridine(2,6-diCH2) = c1cc(C[*:1])nc(C[*:2])c1; mXylylene = c1cc(C[*:1])cc(C[*:2])c1; Bta = N[C@@H](Cc1csc2ccccc12)C(=O)O; X6 = c1cc(CSCCN[*:2])nc(C[*:1])c1; Hyp = O=C(O)[C@@H]1C[C@@H](O)CN1; Suc = O=C(CCC(=O)[*:2])[*:1]; Api = NC1(C(=O)O)CCNCC1; Thp = NC1(C(=O)O)CCOCC1; Aib = CC(C)(N)C(=O)O
reported_metric: IC50

Request: Request body: readout IC50, system GIPR (CHO-K1-hGIPR cells) (Homo sapiens, UniProt P48546), query CC[C@H](C)[C@@H]1NC(=O)[C@H](CC(C)C)NC(=O)C2(CCOCC2)NC(=O)[C@@H](NC(=O)[C@@H](CC(C)C)NC(=O)[C@H](CCC(=O)O)NC(=O)[C@@H]2C[C@@H](O)CN2C(=O)[C@H](Cc2c[nH]c3ccc(Cl)cc23)NC(=O)[C@H](Cc2c[nH]c3ccccc23)NC(=O)[C@H](CC(=O)O)NC(=O)CN2CCN(CC(=O)O)CCN(CC(=O)O)CCN(CC(=O)O)CC2)CSCc2cccc(n2)CSC[C@@H](C(N)=O)NC1=O [GIP-125] ({DOTA}-DW[Trp(5-Cl)][Hyp]E[dL]C[Thp]LIC-NH2; linker 7-11 via Pyridine(2,6-diCH2)) . Return the value.
Result: < 10 nM

Request: Please give the result for CC[C@H](C)[C@@H]1NC(=O)[C@H](CC(C)C)NC(=O)C2(CCN(C(=O)CN3CCN(CC(=O)O)CCN(CC(=O)O)CCN(CC(=O)O)CC3)CC2)NC(=O)[C@@H](NC(=O)[C@@H](CC(C)C)NC(=O)[C@H](CCC(=O)O)NC(=O)[C@@H]2C[C@@H](O)CN2C(=O)[C@H](Cc2c[nH]c3ccc(Cl)cc23)NC(=O)[C@H](Cc2c[nH]c3ccccc23)NC(=O)CCC(=O)O)CSCc2cccc(n2)CSCCNC1=O [GIP-110] (Suc-W[Trp(5-Cl)][Hyp]E[dL]C[Api](DOTA)LI; linker 6-C via X6) too.
Result: < 10 nM

Request: Repeat with CC[C@H](C)[C@@H]1NC(=O)[C@H](CC(C)C)NC(=O)C(C)(C)NC(=O)[C@@H](NC(=O)[C@H](CC(C)C)NC(=O)[C@H](CCC(=O)O)NC(=O)[C@@H]2CCCN2C(=O)[C@H](Cc2csc3ccccc23)NC(=O)[C@H](Cc2c[nH]c3ccccc23)NC(=O)[C@H](CC(=O)O)NC(C)=O)CSCc2cccc(c2)CSC[C@@H](C(=O)NCCCOCCOCCOCCCNC(=O)CCC(=O)N[C@@H](CCCCNC(=O)CN2CCN(CC(=O)O)CCN(CC(=O)O)CCN(CC(=O)O)CC2)C(N)=O)NC1=O [GIP-075] (Ac-DW[Bta]PELC[Aib]LIC-X5; linker 7-11 via mXylylene)
Result: < 10 nM

Request: Repeat for the following compound: CC[C@H](C)[C@@H]1NC(=O)[C@H](CC(C)C)NC(=O)C2(CCOCC2)NC(=O)[C@@H](NC(=O)[C@@H](CC(C)C)NC(=O)[C@H](CCC(=O)O)NC(=O)[C@@H]2C[C@@H](O)CN2C(=O)[C@H](Cc2c[nH]c3ccc(Cl)cc23)NC(=O)[C@H](Cc2c[nH]c3ccccc23)NC(=O)[C@H](CC(=O)O)NC(C)=O)CSCc2cc(cc(CN3CCN(C(=O)CN4CCN(CC(=O)O)CCN(CC(=O)O)CCN(CC(=O)O)CC4)CC3)c2)CSC[C@@H](C(N)=O)NC1=O [GIP-145] (Ac-DW[Trp(5-Cl)][Hyp]E[dL]C[Thp]LIC-NH2; linker 7-11 via X19)
Result: 10 to 79.4 nM
